# procedure_details: Rat PK, IV/PO cross over and brain penetration
# Assay type: in vivo
# run_parameters: rat, brain and plasma; 5mg/kg po.; read-out: CNS Penetration (B:P)
endpoint_name: Kp

Qu. State the recorded Kp for this entry: Cc1cc(CO)nc2cc3c(cc12)OC(C)(C)[C@H](O)[C@H]3NCCc1ccccc1
Ans. 0.2

* * *

# target_system: Muscarinic M5 (Homo sapiens, UniProt P08912)
# Sequence (P08912 whole entry): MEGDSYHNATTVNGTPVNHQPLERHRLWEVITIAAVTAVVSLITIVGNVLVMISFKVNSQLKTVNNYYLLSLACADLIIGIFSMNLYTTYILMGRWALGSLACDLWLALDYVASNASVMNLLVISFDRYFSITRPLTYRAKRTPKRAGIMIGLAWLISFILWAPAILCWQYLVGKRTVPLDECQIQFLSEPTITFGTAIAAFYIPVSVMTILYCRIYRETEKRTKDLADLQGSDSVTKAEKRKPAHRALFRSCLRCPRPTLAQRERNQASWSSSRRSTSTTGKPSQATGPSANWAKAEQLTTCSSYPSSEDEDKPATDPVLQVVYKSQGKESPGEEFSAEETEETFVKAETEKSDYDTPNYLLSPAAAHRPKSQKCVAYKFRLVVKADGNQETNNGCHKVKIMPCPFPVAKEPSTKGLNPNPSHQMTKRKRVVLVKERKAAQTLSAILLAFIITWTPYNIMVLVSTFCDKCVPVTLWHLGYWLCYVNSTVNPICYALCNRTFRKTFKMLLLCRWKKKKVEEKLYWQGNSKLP
endpoint_name: IC50 (nM)
The answer is to be given in nM; state only the numeric part.

Qu. State the recorded IC50 for this entry: C[N+]1(C)CCC(OC(=O)C(c2ccccc2)c2ccccc2)CC1
Ans. 0.52

All values here come from paper PMC8086025.
